Read-out: Collagen III, COL3A1 (gene 1281)
Assay: BSK_hDFCGF_CollagenIII: BioMAP Diversity Plus: hDFCGF Assay for Collagen III Biomarker Activity (AID 2283056)
Details: primary human foreskin fibroblasts; actives raise or lower the signal
Active and inactive are the calls of the source. Rule for the calls: active = hit-call score of the fitted dose curve at least 0.9, where 1 is the maximum; inactive = score below 0.9.

{"columns": ["molecule", "AC50"],
 "data": [
  ["C=CC1(C)OC(=O)N(c2cc(Cl)cc(Cl)c2)C1=O (stereo not drawn)", "inactive"],
  ["CCON=C(CC)C1=C(O)CC(c2c(C)cc(C)cc2C)CC1=O (stereo not drawn)", "inactive"],
  ["O=C(O)c1nc(Cl)ccc1Cl", "inactive"],
  ["Cc1cc(Cl)ccc1OCC(=O)O", "inactive"],
  ["COc1nc(NC(C)C)nc(NC(C)C)n1", "inactive"],
  ["OC(c1ccc(Cl)cc1)(c1cncnc1)c1ccccc1Cl (stereo not drawn)", "inactive"],
  ["Fc1ccc(Oc2ccnc3cc(Cl)cc(Cl)c23)cc1", "12.1 µM (active)"],
  ["CCOC(=O)CC(SP(=S)(OC)OC)C(=O)OCC (stereo not drawn)", "inactive"],
  ["CO/C=C(/C(=O)OC)c1ccccc1Oc1cc(Oc2ccccc2C#N)ncn1", "16.9 µM (active) [middle of 4 runs]"],
  ["CCCC1COC(Cn2cncn2)(c2ccc(Cl)cc2Cl)O1 (stereo not drawn)", "inactive"],
  ["CC(Oc1ccc(Cl)cc1Cl)C(=O)O (stereo not drawn)", "inactive"],
  ["CCNc1nc(Cl)nc(NCC)n1", "inactive"],
  ["CON(C)C(=O)Nc1ccc(Cl)c(Cl)c1", "inactive"]
]}

* * *

Read-out: UDP glucuronosyltransferase (UGT1A1), UGT1A1 (gene 54658)
Experiment: LTEA_HepaRG_UGT1A1: Life Technologies and Expression Analysis (LTEA) Assay for UDP glucuronosyltransferase (UGT1A1) using HepaRG (AID 2283538)
Settings: mRNA level, 48 h; actives raise or lower the signal
Procedure: LTEA_HepaRG is a cell based, multiplexed-readout assay that uses HepaRG, a human liver cell line, with measurements taken at 48 hours after chemical dosing on a 96-well plate.LTEA_HepaRG_UGT1A1 is one of 102 assay component(s) measured in the LTEA HepaRG cell culture assay. It is a marker of Steatosis/NR mediated metabolism.Data from the assay component LTEA_HepaRG_UGT1A1 was analyzed into 1 endpoint. […]
Active and inactive are the calls of the source. How the source made its calls: active means hit-call score of the fitted dose curve at least 0.9, where 1 is the maximum; inactive means score below 0.9.
Outcome codes: y = active, n = inactive

{"columns": ["compound", "category.label"],
 "data": [
  ["CC(C)(C)c1ccc(CSc2cnn(C(C)(C)C)c(=O)c2Cl)cc1", "n"],
  ["OC(c1ccc(Cl)cc1)(c1cncnc1)c1ccccc1Cl (configuration not stated)", "y"],
  ["CCON=C(CC)C1=C(O)CC(c2c(C)cc(C)cc2C)CC1=O (configuration not stated)", "y"],
  ["COC(=O)C=C(C)OP(=O)(OC)OC", "n"],
  ["CCCCNC(=O)n1c(NC(=O)OC)nc2ccccc21", "y"],
  ["CCCCNC(=O)OCC#CI", "y"],
  ["C=CCC1=C(C)C(OC(=O)C2C(C=C(C)C)C2(C)C)CC1=O (configuration not stated)", "n"]
]}

* * *

Read-out: BCL2L11 (gene 10018)
Assay: LTEA_HepaRG_BCL2L11: Life Technologies and Expression Analysis (LTEA) Assay for Bcl-2 (BCL2L11) gene using HepaRG (AID 2283473)
Details: mRNA level, 48 h; actives raise or lower the signal
Activity calls are given as the source filed them. The calls were made as follows: active = hit-call score of the fitted dose curve at least 0.9, where 1 is the maximum; inactive = score below 0.9.
Outcome codes: active, inactive

{"columns": ["compound", "category.label"],
 "data": [
  ["COP(=S)(OC)Oc1nc(Cl)c(Cl)cc1Cl", "inactive"],
  ["N#Cc1cc(Br)c(O)c(Br)c1", "active"],
  ["CC1COC(Cn2cncn2)(c2ccc(Oc3ccc(Cl)cc3)cc2Cl)O1 (stereo not drawn)", "inactive"],
  ["CNC(=O)ON=CC(C)(C)SC", "inactive"],
  ["COC(=O)C(C)Oc1ccc(Oc2ccc(Cl)cc2Cl)cc1 (stereo not drawn)", "inactive"],
  ["CCCCNC(=O)n1c(NC(=O)OC)nc2ccccc21", "inactive"],
  ["Fc1ccc(Oc2ccnc3cc(Cl)cc(Cl)c23)cc1", "inactive"],
  ["N#CC(CCc1ccc(Cl)cc1)(Cn1cncn1)c1ccccc1 (stereo not drawn)", "inactive"],
  ["Oc1ccccc1-c1ccccc1", "inactive"],
  ["COC(=O)c1ccccc1C(=O)OC", "inactive"],
  ["C=CCC1=C(C)C(OC(=O)C2C(C=C(C)C)C2(C)C)CC1=O (stereo not drawn)", "inactive"],
  ["CCNc1nc(Cl)nc(NCC)n1", "inactive"],
  ["CC(C)Oc1cc(-n2nc(C(C)(C)C)oc2=O)c(Cl)cc1Cl", "inactive"],
  ["CCOP(=S)(OCC)SCn1c(=O)oc2cc(Cl)ccc21", "inactive"],
  ["Cc1cc(Cl)ccc1OCC(=O)O", "inactive"],
  ["CCCC1COC(Cn2cncn2)(c2ccc(Cl)cc2Cl)O1 (stereo not drawn)", "inactive"],
  ["C=CC1(C)OC(=O)N(c2cc(Cl)cc(Cl)c2)C1=O (stereo not drawn)", "inactive"],
  ["O=C(O)c1nc(Cl)ccc1Cl", "inactive"],
  ["Cc1ccc(-c2c(Cl)nc(C#N)n2S(=O)(=O)N(C)C)cc1", "inactive"],
  ["Cc1c(F)c(F)c(COC(=O)C2C(/C=C(\\Cl)C(F)(F)F)C2(C)C)c(F)c1F (stereo not drawn)", "inactive"],
  ["CCCCNC(=O)OCC#CI", "inactive"],
  ["COC(=O)C=C(C)OP(=O)(OC)OC", "inactive"],
  ["C#CCOS(=O)OC1CCCCC1Oc1ccc(C(C)(C)C)cc1 (stereo not drawn)", "inactive"],
  ["CC(Oc1ccc(Cl)cc1Cl)C(=O)O (stereo not drawn)", "inactive"],
  ["CN(C)C(=S)SSC(=S)N(C)C", "inactive"],
  ["COc1cnc(OC)n2nc(NS(=O)(=O)c3c(OCC(F)F)cccc3C(F)(F)F)nc12", "inactive"],
  ["CCCCC(CC)COC(=O)c1ccccc1C(=O)OCC(CC)CCCC (stereo not drawn)", "inactive"],
  ["CNC(=S)S", "inactive"]
]}

* * *

Read-out: Monocyte Chemoattractant Protein-1 (MCP1), CCL2 (gene 6347)
Test: BSK_SAg_MCP1: BioMAP Diversity Plus: SAg Assay for Monocyte Chemoattractant Protein-1 (MCP1) Biomarker Activity (AID 2283090)
Settings: primary human HUVEC with PBMC; actives raise or lower the signal
Active and inactive are the calls of the source. Rule for the calls: active = hit-call score of the fitted dose curve at least 0.9, where 1 is the maximum; inactive = score below 0.9.
Outcome codes: active, inactive

{"columns": ["compound", "category.label"],
 "data": [
  ["COc1nc(C)nc(NC(=O)NS(=O)(=O)c2ccccc2CCC(F)(F)F)n1", "inactive"],
  ["Fc1ccc(Oc2ccnc3cc(Cl)cc(Cl)c23)cc1", "active"],
  ["CC(C)Oc1cc(-n2nc(C(C)(C)C)oc2=O)c(Cl)cc1Cl", "active"],
  ["CN(C)C(=S)SSC(=S)N(C)C", "active"],
  ["CCNc1nc(Cl)nc(NC(C)C)n1", "inactive"],
  ["CCOc1cc(Oc2ccc(C(F)(F)F)cc2Cl)ccc1[N+](=O)[O-]", "inactive"],
  ["CCCC1COC(Cn2cncn2)(c2ccc(Cl)cc2Cl)O1 (centres undefined)", "inactive"],
  ["CS/C(C)=N/OC(=O)N(C)SN(C)C(=O)O/N=C(\\C)SC", "active"],
  ["CCOP(=S)(OCC)SCn1c(=O)oc2cc(Cl)ccc21", "active"]
]}

* * *

Test: CCTE_Mundy_HCI_hNP1_Casp3_7: CCTE's Caspase-Glo 3/7 Assay in human neuroprogenitor cells for Apoptosis, Mundy Lab (AID 2284240)
Activity calls are given as the source filed them. Rule for the calls: active = hit-call score of the fitted dose curve at least 0.9, where 1 is the maximum; inactive = score below 0.9.
Outcome codes: active, inactive

{"columns": ["molecule", "category.label"],
 "data": [
  ["CCOc1cc(Oc2ccc(C(F)(F)F)cc2Cl)ccc1[N+](=O)[O-]", "active"],
  ["CCCCOC(=O)c1ccccc1C(=O)OCCCC", "inactive"],
  ["CCCCNC(=O)n1c(NC(=O)OC)nc2ccccc21", "active"],
  ["C=CC1(C)OC(=O)N(c2cc(Cl)cc(Cl)c2)C1=O (stereo not drawn)", "inactive"],
  ["CN(C)C(=S)SSC(=S)N(C)C", "active"],
  ["CNC(=O)ON=CC(C)(C)SC", "inactive"],
  ["COC(=O)N(OC)c1ccccc1COc1ccn(-c2ccc(Cl)cc2)n1", "active"],
  ["C=CCC1=C(C)[C@@H](OC(=O)[C@@H]2[C@@H](C=C(C)C)C2(C)C)CC1=O", "inactive"]
]}

* * *

Read-out: catalase (CAT), CAT (gene 847)
Assay: LTEA_HepaRG_CAT: Life Technologies and Expression Analysis (LTEA) Assay for catalase (CAT) using HepaRG (AID 2283452)
Details: mRNA level, 48 h; actives raise or lower the signal
Protocol: LTEA_HepaRG is a cell based, multiplexed-readout assay that uses HepaRG, a human liver cell line, with measurements taken at 48 hours after chemical dosing on a 96-well plate.LTEA_HepaRG_CAT is one of 102 assay component(s) measured in the LTEA HepaRG cell culture assay. It is a marker of Oxidative Stress.Data from the assay component LTEA_HepaRG_CAT was analyzed into 1 endpoint. […]
The source made the active and inactive calls. The calls were made as follows: active = hit-call score of the fitted dose curve at least 0.9, where 1 is the maximum; inactive = score below 0.9.
Outcome codes: 1 for active, -1 for inactive

{"columns": ["compound", "category.label"],
 "data": [
  ["CC(C)Oc1cc(-n2nc(C(C)(C)C)oc2=O)c(Cl)cc1Cl", 1],
  ["C#CCOS(=O)OC1CCCCC1Oc1ccc(C(C)(C)C)cc1 (stereo unspecified)", 1],
  ["OC(c1ccc(Cl)cc1)(c1cncnc1)c1ccccc1Cl (stereo unspecified)", 1],
  ["COc1ccc(C(c2ccc(OC)cc2)C(Cl)(Cl)Cl)cc1", 1],
  ["Cc1cc(Cl)ccc1OCC(=O)O", -1],
  ["COc1nc(NC(C)C)nc(NC(C)C)n1", -1]
]}
